These entries and their values trace back to ChEMBL document CHEMBL3098039.

- System: Plasmodium falciparum
- measurementProtocol: Antiplasmodial activity against chloroquine-resistant ring stage Plasmodium falciparum W2 assessed as parasitemia after 48 hrs by flow cytometry
- Assay type: functional, organism-based
- measurementContext: W2, 48 h
measure: IC50 (µM)
Number in µM, nothing else.

[[record]]
compound = "O=C(NCCNc1ccnc2cc(Cl)ccc12)N[C@H]1C(=O)N(C2CCCCC2)[C@H]1/C=C/c1ccccc1 (mixture of isomers)"
assayedtarget = "Plasmodium falciparum"
measure = "IC50"
measurementunit = "µM"
valuemeasured = 0.157


query: Fill blank: measured IC50 of the compound Cc1ccc(N2C(=O)[C@H](NC(=O)NCCCCCCNc3ccnc4cc(Cl)ccc34)[C@@H]2/C=C/c2ccccc2)cc1 (racemic) is ____.
result: 0.0424

query: Fill blank: measured IC50 of the compound O=C(NCCCCNc1ccnc2cc(Cl)ccc12)N[C@H]1C(=O)N(C2CCCCC2)[C@H]1/C=C/c1ccccc1 (relative stereo) is ____.
result: 0.193

query: Fill blank: measured IC50 of the compound O=C(NCCCNc1ccnc2cc(Cl)ccc12)C(=O)N[C@@H]1C(=O)N(C2CCCCC2)[C@@H]1/C=C/c1ccccc1 (mixture of isomers) is ____.
result: 0.121

* * *

- measurementProtocol: Cytotoxicity against human HeLa cells assessed as cell viability at 1 uM after 24 hrs by trypan blue assay relative to untreated control
- Format: cell-based
- measurementContext: read-out: Activity
measure: viability at 24 h, 1 µM

query: Fill blank: measured viability at 24 h, 1 µM of the compound `COc1cccc2c1C(=O)c1c(O)c3c(c(O)c1C2=O)C[C@@](O)(C(=O)CO)C[C@@H]3O[C@H]1C[C@H](N)[C@H](O)[C@H](C)O1` is ____.
result: 62%

* * *

# IC50 values compiled below
- Tested on: Plasmodium falciparum
- measurementProtocol: Antiplasmodial activity against chloroquine-resistant ring stage Plasmodium falciparum W2 assessed as parasitemia after 48 hrs by flow cytometry
- Assay type: functional, organism-based
- measurementContext: W2, 48 h
Number in nM, nothing else.

[[record]]
compound = "C[C@@H]1CC[C@H]2[C@@H](C)C(=O)O[C@@H]3O[C@@]4(C)CC[C@@H]1[C@]32OO4"
valuemeasured = 10.6

[[record]]
compound = "Cc1ccc(N2C(=O)[C@@H](NC(=O)C(=O)NCCCNc3ccnc4cc(Cl)ccc34)[C@H]2/C=C/c2ccccc2)cc1 (racemic)"
valuemeasured = 88.7

[[record]]
compound = "O=C(NCCCCNc1ccnc2cc(Cl)ccc12)C(=O)N[C@@H]1C(=O)N(c2ccc(Cl)cc2)[C@@H]1/C=C/c1ccccc1 (racemic)"
valuemeasured = 82.2

[[record]]
compound = "O=C(NCCCCCCNc1ccnc2cc(Cl)ccc12)N[C@H]1C(=O)N(C2CCCCC2)[C@H]1/C=C/c1ccccc1 (racemic)"
valuemeasured = 52.1

[[record]]
compound = "O=C(NCCCCCCNc1ccnc2cc(Cl)ccc12)C(=O)N[C@@H]1C(=O)N(c2ccc(Cl)cc2)[C@@H]1/C=C/c1ccccc1 (racemic)"
valuemeasured = 50.8

[[record]]
compound = "Cc1ccc(N2C(=O)[C@H](NC(=O)NCCNc3ccnc4cc(Cl)ccc34)[C@@H]2/C=C/c2ccccc2)cc1 (mixture of isomers)"
valuemeasured = 53.1


query: Fill blank: measured IC50 of the compound Cc1ccc(N2C(=O)[C@@H](NC(=O)C(=O)NCCNc3ccnc4cc(Cl)ccc34)[C@H]2/C=C/c2ccccc2)cc1 (racemic) is ____.
result: 44.8

query: Fill blank: measured IC50 of the compound O=C(NCCCNc1ccnc2cc(Cl)ccc12)N[C@H]1C(=O)N(C2CCCCC2)[C@H]1/C=C/c1ccccc1 (relative stereo) is ____.
result: 73

* * *

- measurementProtocol: Cytotoxicity against human HeLa cells assessed as cell viability at 10 uM after 24 hrs by trypan blue assay relative to untreated control
- Format: cell-based
- measurementContext: read-out: Activity
measure: viability at 24 h, 10 µM (%)
Number in %, nothing else.

[[record]]
molecule = "O=C(NCCCCCCNc1ccnc2cc(Cl)ccc12)C(=O)N[C@@H]1C(=O)N(C2CCCCC2)[C@@H]1/C=C/c1ccccc1 (racemic)"
valuemeasured = 90


Turning to the following molecule.
query: Fill blank: measured viability at 24 h, 10 µM of the molecule Cc1ccc(N2C(=O)[C@H](NC(=O)NCCCCCCNc3ccnc4cc(Cl)ccc34)[C@@H]2/C=C/c2ccccc2)cc1 (racemic) is ____.
result: 90

* * *

- System: Plasmodium falciparum
- measurementProtocol: Antiplasmodial activity against chloroquine-resistant ring stage Plasmodium falciparum W2 assessed as parasitemia after 48 hrs by flow cytometry
- Format: functional, organism-based
- measurementContext: W2, 48 h
pIC50: −log10 of the molar value.
Class y: pIC50 at least 7. Class n: pIC50 below 7.

[[record]]
compound = "CCOC(=O)C(=O)N[C@@H]1C(=O)N(C2CCCCC2)[C@@H]1/C=C/c1ccccc1 (racemic)"
category = "n"


query: Is pIC50 for O=C(NCCCCCCNc1ccnc2cc(Cl)ccc12)C(=O)N[C@@H]1C(=O)N(C2CCCCC2)[C@@H]1/C=C/c1ccccc1 (racemic) at or above 7?
result: y

query: Is pIC50 for CCOC(=O)C(=O)N[C@@H]1C(=O)N(c2ccc(Cl)cc2)[C@@H]1/C=C/c1ccccc1 (relative stereo) at or above 7?
result: n

* * *

- Test system: Plasmodium falciparum
- measurementProtocol: Antiplasmodial activity against chloroquine-resistant ring stage Plasmodium falciparum W2 assessed as parasitemia after 48 hrs by flow cytometry
- Format: functional, organism-based
- measurementContext: W2, 48 h
# IC50 values compiled below
Number in nM, nothing else.

[[record]]
molecule = "O=C(NCCNc1ccnc2cc(Cl)ccc12)C(=O)N[C@@H]1C(=O)N(C2CCCCC2)[C@@H]1/C=C/c1ccccc1 (racemic)"
measure = "IC50"
valuemeasured = 61.3

[[record]]
molecule = "Cc1ccc(N2C(=O)[C@H](NC(=O)NCCCCNc3ccnc4cc(Cl)ccc34)[C@@H]2/C=C/c2ccccc2)cc1 (mixture of isomers)"
measure = "IC50"
valuemeasured = 149

[[record]]
molecule = "Cc1ccc(N2C(=O)[C@H](NC(=O)NCCCNc3ccnc4cc(Cl)ccc34)[C@@H]2/C=C/c2ccccc2)cc1 (racemic)"
measure = "IC50"
valuemeasured = 51


query: Fill blank: measured IC50 of the molecule `CCNCc1cc(Nc2ccnc3cc(Cl)ccc23)ccc1O` is ____.
result: 401

query: Fill blank: measured IC50 of the molecule O=C(NCCCCNc1ccnc2cc(Cl)ccc12)C(=O)N[C@@H]1C(=O)N(C2CCCCC2)[C@@H]1/C=C/c1ccccc1 (mixture of isomers) is ____.
result: 68.6
